Answer each item with its documented IC50.
target-or-test-system: reverse transcriptase of HIV (HIV-1 RT) (Human immunodeficiency virus type 1 group M subtype B)

[ask] Can you share its IC50? I mean this molecule: `O=C(O)C(O)=CC(=O)c1ccc(Cc2ccccc2)s1`
[reply] > 100 µM

[ask] Quick one: IC50 of `C=CCOc1ccccc1C(=O)C=C(O)C(=O)O` ?
[reply] > 100 µM

[ask] Suppose we examine the molecule `Cc1ccc(OCCCC#N)c(C(=O)C=C(O)C(=O)O)c1` ; what IC50 value has been reported?
[reply] > 50 µM

----------
target-or-test-system: HCV RdRp (NS5B RNA-dependent RNA polymerase) (Hepatitis C virus genotype 1b)
Construct: The HCV NS5B protein is the viral RdRp; made in house; host or cells: insect cells infected with recombinant baculovirus
Sequence (P26663 2420-3010): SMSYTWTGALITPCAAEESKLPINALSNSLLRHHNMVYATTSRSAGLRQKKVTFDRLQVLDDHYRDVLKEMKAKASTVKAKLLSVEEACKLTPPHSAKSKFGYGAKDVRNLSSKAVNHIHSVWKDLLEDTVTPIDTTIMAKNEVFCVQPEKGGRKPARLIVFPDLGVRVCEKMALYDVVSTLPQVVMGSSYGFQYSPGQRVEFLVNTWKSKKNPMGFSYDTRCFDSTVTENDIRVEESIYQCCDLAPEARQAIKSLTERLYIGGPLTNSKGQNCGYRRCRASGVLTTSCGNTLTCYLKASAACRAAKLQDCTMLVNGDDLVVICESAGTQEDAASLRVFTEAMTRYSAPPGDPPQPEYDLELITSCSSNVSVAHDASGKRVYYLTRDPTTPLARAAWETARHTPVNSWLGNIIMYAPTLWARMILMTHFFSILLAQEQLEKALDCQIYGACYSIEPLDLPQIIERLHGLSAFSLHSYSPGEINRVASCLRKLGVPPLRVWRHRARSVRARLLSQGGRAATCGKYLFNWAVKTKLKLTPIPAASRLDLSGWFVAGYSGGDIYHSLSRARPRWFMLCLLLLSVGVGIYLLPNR
experiment-summary: Inhibition of hepatitis C virus RdRp (poly(A)/oligo(U), [3H]UTP incorporation)
Format: biochemical
experimental-parameters: Tables I-VIII; 20 nM NS5B, 1 hour at 22° C.; read-out: IC 50 (μM), HCV-polymerase
Could you please report measured IC50 for the items listed next?
# number only, unit µM dropped from output

[ask] Please tell me: IC50 of Nc1cccc(C(=O)C=C(O)C(=O)O)c1 [Example 62] , system HCV RdRp (NS5B RNA-dependent RNA polymerase) (Hepatitis C virus genotype 1b)?
[reply] 10

[ask] Enter reported IC50 observed with HCV RdRp (NS5B RNA-dependent RNA polymerase) (Hepatitis C virus genotype 1b) for O=C(O)C(O)=CC(=O)c1cccc(OCc2cccc(Oc3ccccc3)c2)c1 [Example 104]
[reply] 50

[ask] GET /values?readout=IC50&system=HCV RdRp (NS5B RNA-dependent RNA polymerase) (Hepatitis C virus genotype 1b)&item= O=C(O)C(O)=CC(=O)c1cccc(NS(=O)(=O)c2ccc(-c3ccccc3)cc2)c1 [Example 124]
[reply] 28

[ask] Param readout= IC50; system= HCV RdRp (NS5B RNA-dependent RNA polymerase) (Hepatitis C virus genotype 1b); entry= O=C(O)C(O)=CC(=O)C1(c2ccccc2)CCN(S(=O)(=O)c2ccc(Cl)c(Cl)c2)CC1 [Example 250] ; returns value.
[reply] 17

[ask] Please provide the recorded IC50 for O=C(O)C(O)=CC(=O)c1cccn1Cc1ccccc1Cl [Example 186] , tested on HCV RdRp (NS5B RNA-dependent RNA polymerase) (Hepatitis C virus genotype 1b).
[reply] 24

[ask] Quick check: IC50 on HCV RdRp (NS5B RNA-dependent RNA polymerase) (Hepatitis C virus genotype 1b), item CCCCOc1ccccc1C(=O)C=C(O)C(=O)O [Example 52] ?
[reply] 10

[ask] // fetch HCV RdRp (NS5B RNA-dependent RNA polymerase) (Hepatitis C virus genotype 1b) IC50 for O=C(O)C(O)=CC(=O)c1cccc(OCCCCn2c(C(F)(F)F)nc3ccccc32)c1 [Example 22]
[reply] 19

[ask] Item O=C(O)C(O)=CC(=O)c1cccc(OC2CCCCC2)c1 [Example 11] with HCV RdRp (NS5B RNA-dependent RNA polymerase) (Hepatitis C virus genotype 1b) - IC50?
[reply] 7.08

[ask] Given the entry CS(=O)(=O)Nc1cccc(C(=O)C=C(O)C(=O)O)c1 [Example 75] , what IC50 was observed with HCV RdRp (NS5B RNA-dependent RNA polymerase) (Hepatitis C virus genotype 1b)?
[reply] 19.2
